# experimental_target: T1, human ubiquitin, wild type (human, UniProt P0CG48 1-76)
# T1 construct: ubiquitin, human; the mature ubiquitin unit cut from its precursor; also called WT ubiquitin; source: E. coli BL21 STAR (DE3), purified (Ni-NTA, thrombin cleavage, benzamidine column, second Ni-NTA, Superdex 75); not shown: His6, N-terminal, cleaved
# assay_procedure: ITC; ubiquitin (2-3 mM) titrated into FAAP20 (0.2-0.3 mM); 25 mM sodium phosphate, 100 mM KCl, pH 7.0; 25°C; 28 injections of 10 μl; one-site binding fit
# measurement_conditions: both partners purified

| binder | Kd |
| --- | --- |
| GAAALRSCPMCQKEFAPRLTQLDVASHLAQCLAESTEDVTW (domain or fragment, UniProt Q6NZ36 140-180, looked up, source: E. coli BL21 STAR (DE3), purified (Ni-NTA, TEV cleavage, second Ni-NTA, Superdex 75); not shown: His10, N-terminal, cleaved; GB1, N-terminal, cleaved) [human FAAP20 UBZ D164A] | > 600 µM |
| GAAALRSCPMCQKEFAPRLTQLDVDSHLYQCLAESTEDVTW (domain or fragment, UniProt Q6NZ36 140-180, looked up, source: E. coli BL21 STAR (DE3), purified (Ni-NTA, TEV cleavage, second Ni-NTA, Superdex 75); not shown: His10, N-terminal, cleaved; GB1, N-terminal, cleaved) [human FAAP20 UBZ A168Y] | > 600 µM |
| GAAALRSCPMCQKEFAPRLTQLDVDSHLAQCLAESTEDVTA (domain or fragment, UniProt Q6NZ36 140-180, looked up, also called FAAP20 W180A mutant; source: E. coli BL21 STAR (DE3), purified (Ni-NTA, TEV cleavage, second Ni-NTA, Superdex 75); not shown: His10, N-terminal, cleaved; GB1, N-terminal, cleaved) [human FAAP20 UBZ W180A] | > 600 µM |

The measurements presented in this section are drawn from paper PMC4267625.
